- Assay protocol: small-molecule microarray binders of probe aEGFR, primary screen, biochemical, biotinylated probe, 635/667 nm fluorescence (AID 1097);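 further: probe is a biotinylated anti-EGFR antibody binding compounds printed on slides; score combines fluorescence near 667 nm and signal to noise of each spot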
- Experimental context: higher = more signal
Assay endpoint: composite z-score

Molecule	Experimental result
CS(=O)(=O)CCOC(=O)C1=CC(CCCO)=CC(c2ccc(CN3CCCC3)cc2)N(Cc2cc3c(cc2Br)OCO3)C=C1C(=O)OCCS(C)(=O)=O (stereo not drawn)	0.101
CCCC=C(CCC)[C@@H](NS(=O)(=O)c1cccs1)c1ccc(C(=O)OC)cc1	-0.11
COc1ccc(C(O)C2C=CC3C(=O)N(c4ccccc4)C(=O)C3N2Nc2ccc(C(C)C)cc2)cc1OCc1ccccc1 (stereo not drawn)	0.339
O=C(C1N=C(c2ccc(OCCCO)cc2)N(c2ccccc2)O1)N1CCOCC1 (stereo not drawn)	0.184
O=C1O[C@H](c2ccccc2)[C@H](c2ccccc2)N2[C@H]1[C@@H](C(=O)Nc1nc3ccccc3s1)[C@]1(C(=O)Nc3ccc(C#CCCO)cc31)[C@H]2c1ccc(OCCO)cc1	-0.0368
COc1ccc(C(O)C2C=CC3C(=O)NC(=O)C3N2Nc2ccccn2)cc1 (stereo not drawn)	0.164
O=C1OCCC/C=C\[C@H]2OC34C=CCN(Cn5nnc6ccccc65)C(=O)[C@H]3N(CCO)C(=O)[C@@H]4C12 (stereo partly drawn)	-0.0015
CC(C)(C)C(=O)N[C@@H](c1ccc(Cl)cc1)[C@]1(C)C[C@H]1C1CCCCC1	0.106
